system: Raji; assay: Inhibition of TPA-induced EBV-early antigen activation in human Raji cells assessed as EA activation at 100 molar ratio after 48 hrs relative to control; type: cell-based; settings: human gammaherpesvirus 4
test_readout: EA activation relative to control (%)
Report the figure in % without appending any unit label.

-- ask Look up and report measured EA activation relative to control for this entry: "CO[C@H]1CC[C@@]2(C)[C@@H](CC[C@@]3(C)CC4=CC[C@H]5C(C)(C)[C@H](OC(=O)CCC(=O)O)CC[C@]5(C)[C@H]4CC[C@@H]32)C1(C)C"
-- reply 69.5

-- ask Look up and report measured EA activation relative to control for this entry: "CO[C@@H]1CC[C@@]2(C)[C@@H](CC[C@@]3(C)CC4=CC[C@H]5C(C)(C)[C@H](OC(=O)CCC(=O)Oc6ccc(-c7coc8cc(O)ccc8c7=O)cc6)CC[C@]5(C)[C@H]4CC[C@@H]32)C1(C)C"
-- reply 83.4

-- ask Look up and report measured EA activation relative to control for this entry: "CO[C@H]1CC[C@@]2(C)[C@@H](CC[C@@]3(C)CC4=CC[C@H]5C(C)(C)[C@H](OC(=O)CN)CC[C@]5(C)[C@H]4CC[C@@H]32)C1(C)C"
-- reply 80.3

-- ask Look up and report measured EA activation relative to control for this entry: "CC1(C)CC[C@]2(C(=O)O)CC[C@]3(C)C(=CC[C@@H]4[C@@]5(C)CC[C@H](O)C(C)(C)[C@@H]5CC[C@]43C)[C@@H]2C1"
-- reply 80

-- ask Look up and report measured EA activation relative to control for this entry: "CO[C@@H]1CC[C@@]2(C)[C@@H](CC[C@@]3(C)CC4=CC[C@H]5C(C)(C)[C@H](OC(=O)CC(C)(C)C(=O)O)CC[C@]5(C)[C@H]4CC[C@@H]32)C1(C)C"
-- reply 67.5

-- ask Look up and report measured EA activation relative to control for this entry: "CO[C@@H]1CC[C@@]2(C)[C@@H](CC[C@@]3(C)CC4=CC[C@H]5C(C)(C)[C@H](OC(=O)CCC(=O)Oc6ccc([C@@H]7CC(=O)c8c(O)cc(O)cc8O7)cc6)CC[C@]5(C)[C@H]4CC[C@@H]32)C1(C)C"
-- reply 81

-- ask Look up and report measured EA activation relative to control for this entry: "CO[C@H]1CC[C@@]2(C)[C@@H](CC[C@@]3(C)CC4=CC[C@H]5C(C)(C)[C@H](OC(=O)c6cc(O)c(O)c(O)c6)CC[C@]5(C)[C@H]4CC[C@@H]32)C1(C)C"
-- reply 71.3

-- ask Look up and report measured EA activation relative to control for this entry: "CO[C@@H]1CC[C@@]2(C)[C@@H](CC[C@@]3(C)CC4=CC[C@H]5C(C)(C)[C@H](OC(=O)CCC(=O)O)CC[C@]5(C)[C@H]4CC[C@@H]32)C1(C)C"
-- reply 68.3

-- ask Look up and report measured EA activation relative to control for this entry: "CO[C@@H]1CC[C@@]2(C)[C@@H](CC[C@@]3(C)CC4=CC[C@H]5C(C)(C)[C@H](OC(=O)CCC(=O)Oc6ccc(-c7coc8cc(O)cc(O)c8c7=O)cc6)CC[C@]5(C)[C@H]4CC[C@@H]32)C1(C)C"
-- reply 81

-- ask Look up and report measured EA activation relative to control for this entry: "CO[C@H]1CC[C@@]2(C)[C@@H](CC[C@@]3(C)CC4=CC[C@H]5C(C)(C)[C@H](OC(=O)CN6CCCCC6)CC[C@]5(C)[C@H]4CC[C@@H]32)C1(C)C"
-- reply 82
